All figures here come from patent EP0520604A2.

Test system: monoclonal antibody produced by a strain GA2-20-6
experimental-details: Inhibition ELISA (cross reactivity), solidified GA-BSA conjugate as antigen
Type: binding, mouse
condition-parameters: monoclonal antibody 2-20-6; values in parenthesis, relative to (GA)
property: cross reactivity

C[C@H](CCC(=O)O)[C@H]1CC[C@H]2[C@@H]3[C@H](O)C[C@@H]4C[C@H](O)CC[C@]4(C)[C@H]3C[C@H](O)[C@]12C (<1.6) %
CC1(C)[C@@H](O[C@H]2O[C@H](C(=O)O)[C@@H](O)[C@H](O)[C@H]2O[C@@H]2O[C@H](C(=O)O)[C@@H](O)[C@H](O)[C@H]2O)CC[C@]2(C)[C@H]3C(=O)C=C4[C@@H]5C[C@@](C)(C(=O)O)CC[C@]5(C)CC[C@@]4(C)[C@]3(C)CC[C@@H]12 (<1.6) %
CC1(C)C(=O)CC[C@]2(C)[C@H]3C(=O)C=C4[C@@H]5C[C@@](C)(C(=O)O)CC[C@]5(C)CC[C@@]4(C)[C@]3(C)CC[C@@H]12 (<1.6) %

* * *

Tested on: monoclonal antibody produced by a strain GA2-20-3
experimental-details: Inhibition ELISA (cross reactivity), solidified GA-BSA conjugate as antigen
Type: binding, mouse
condition-parameters: monoclonal antibody 2-20-3; values in parenthesis, relative to (GA)
property: cross reactivity

C[C@H](CCC(=O)O)[C@H]1CC[C@H]2[C@@H]3[C@H](O)C[C@@H]4C[C@H](O)CC[C@]4(C)[C@H]3C[C@H](O)[C@]12C (<1.6) %
CC1(C)[C@@H](O[C@H]2O[C@H](C(=O)O)[C@@H](O)[C@H](O)[C@H]2O[C@@H]2O[C@H](C(=O)O)[C@@H](O)[C@H](O)[C@H]2O)CC[C@]2(C)[C@H]3C(=O)C=C4[C@@H]5C[C@@](C)(C(=O)O)CC[C@]5(C)CC[C@@]4(C)[C@]3(C)CC[C@@H]12 (<1.6) %
